B1: DLC1 (parent)
chain: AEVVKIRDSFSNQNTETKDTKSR

# Variants of: B1
# protocol-details: protein stability index of a GFP-peptide fusion (GPS, HEK-293T) (PSI 1-6); higher = more stable;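 also: lentivirally expressed fusions sorted by FACS into six bins by GFP to DsRed ratio, PSI derived from sequencing read proportions per bin multiplied by bin number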
# settings: c terminus: native
Task for the reader: assign each of the following variants its reported protein stability index.
# answer = number (no unit)

For the variant shown here, S9C , give the reported protein stability index. 2.8

Return reported protein stability index; argument: T15L 2.17

Field request: protein stability index | item: K21R 1.71

Fill in: protein stability index of I6V is ___ 2.74

Could you share which protein stability index value was measured for N12K ? 2.17

Endpoint output: protein stability index of D8L . Value? 2.62

Given E2T , state its recorded protein stability index. 3.03

For R7G , what is its reported protein stability index? 2.87

# protein stability index lookup, item V4L 4.87

Would you kindly share the measured protein stability index for Q13D ? 2.37

Item under review: A1G . Reported protein stability index? 2.9

Reported protein stability index for D19P : what is it? 3.03

// returns reported protein stability index for input S9H 3.54

Which protein stability index is listed for D8M ? 1.65

Fill blank: measured protein stability index of the variant K21F is ____. 4.8

Param item = N12Q ; retrieve measured protein stability index. 2.03

Name the reported protein stability index value associated with the variant K21E 5.2

Which protein stability index value is on record for K5E ? 3.01

I am curious: what protein stability index value has been reported for K5D ? 3.23

Look at this variant and give its reported protein stability index. T20R 4.41

What value of protein stability index has been reported for the following variant? F10V 2.95

May I ask what protein stability index has been recorded for E16V ? 3.04
